target: T1, SARS-CoV-2 S2 (40590-V08B, Sino Biological) (SARS-CoV-2, UniProt P0DTC2 686-1213); assay: ELISA on coated protein, anti-human IgG-HRP; AUC of the OD
T1 construct: domain: S2
readout_kind: Binding AUC
Write the value as a bare number.

Sample answers from the record:
binder	quantitative_result
1242F4 (antibody, V domains shown, Recombinant human IgG1) VH: EVQLVQSGAEVKKPGTSVKVSCKASGNTVADYYMHWVRQAPRQGLEWVGLINPSGSGTAYAQNFQGRVTLTRDTSTSTLYMELGSLGSEDTAIYYCARMDSSGTYDVWGQGTLVTVSS VL: EIVLTQSPGTLSLSPGERATLSCRASQSIRSGYLAWYQQKPGQAPRLLIRGASVKATGIPDRFSGSGSGTDFTLTISRLEPEDFVVYYCQHFASSPPRYTFGQGTKLEIK	28.5
1250D2 (antibody, V domains shown, Recombinant human IgG1) VH: QVQLVQSGAEVKKPGASMKVSCKASGFTFSDYYMHWVRQAPRQGLEWMGLINPSGSGTAYAQNFQGRVTLTRDTSTSTLYMEMGSLTSDDTAVYYCARMDSSGSYDHWGQGTLVTVSS VL: EIVLTQSPGTLSLSPGDRATLSCRASQTIRISYLAWYQQKPGQAPRLLVYGPSIRATGIPDRFSASGSGTDFTLTISRLEPEDFAVYYCQHYGSSPPRYTFGQGTKLEIK	28.2

Moving on to another binder below.
Exam item: Bench note: what Binding AUC did 1242G6 (antibody, V domains shown, Recombinant human IgG1) VH: QVQLVQSGGGVVQPGTSVRLSCAASGFTFSDHGMHWVRQAPGKGLEWVAVISFEGRNKFFADSVKGRSTISRDNSKNTVSMQVDNVRPEDTAVYYCAREHFDGSGSDYIGTRFFDYWGRGALVTVSS VL: DIQLTQSPSFLSASVGDRVTITCRASQGISHYLTWYQQKPGKAPKLLIYRTSTLQSGVPSRFSGSGSGTVFTLTISSLQPEDLATYYCQHLDNFPTITFGQGTRLDLK show?
Marked response: 22.6
